Tested on: P-gp
Assay: Permeability in Caco-2 barrier model
Details: human
parameter: efflux ratio
Numbers only.

Prompt: Quote efflux ratio reported for C[C@H]1O[C@@H](O[C@H]2[C@@H](O)C[C@H](O[C@H]3[C@@H](O)C[C@H](O[C@H]4CC[C@@]5(C)[C@H](CC[C@@H]6[C@@H]5C[C@@H](O)[C@]5(C)[C@@H](C7=CC(=O)OC7)CC[C@]65O)C4)O[C@@H]3C)O[C@@H]2C)C[C@H](O)[C@@H]1O please.
Response: 8.06

###

Test: clinical
Conditions: human, in vivo
parameter: CL/F (mL/min)
One number for each entry, in mL/min.

Prompt: Quote CL/F reported for CC(=O)NCCNCCNCCN [MAT, N1-acetyltriethylenetetramine] please.
Response: 1270

# map each molecule to its CL/F
1. CC(=O)NCCNCCNCCNC(C)=O [DAT, N1,N10-diacetyltriethylenetetramine]
2. NCCNCCNCCN [TETA, triethylenetetramine]

Response:
1. 5100
2. 2350

###

Test system: Pgp
Assay: Permeability in Caco-2 barrier model
Settings: human
Method: Digoxin was used as marker to check for Pgp activity in the cultures. […] Samples were recovered from receptor compartments after 0, 15, 30, 45, 60, and 120 minutes, and further analyzed by liquid scintillation counting. Samples were also recovered a time 0 and 120 minutes from the donor compartments for mass balance evaluation. Each condition was performed in 3 replicated transwell filters in the presence of the Caco-2 barrier.
parameter: Papp B→A (×10⁻⁶ cm/s)
Answers are plain numbers, in ×10⁻⁶ cm/s.

Prompt: Quote Papp B→A reported for C[C@H]1O[C@@H](O[C@H]2[C@@H](O)C[C@H](O[C@H]3[C@@H](O)C[C@H](O[C@H]4CC[C@@]5(C)[C@H](CC[C@@H]6[C@@H]5C[C@@H](O)[C@]5(C)[C@@H](C7=CC(=O)OC7)CC[C@]65O)C4)O[C@@H]3C)O[C@@H]2C)C[C@H](O)[C@@H]1O please.
Response: 6.08

###

Assay: clinical
Settings: human, in vivo
parameter: Tmax

Prompt: Quote Tmax reported for NCCNCCNCCN.O=C(O)CCC(=O)O.O=C(O)CCC(=O)O [PX811019, triethylenetetramine disuccinate] please.
Response: 1.25 to 2 h

Read the next record carefully.
Prompt: Quote Tmax reported for CC(=O)NCCNCCNCCNC(C)=O [DAT, N1,N10-diacetyltriethylenetetramine] please.
Response: 5 to 6 h
